Recorded values, source patent US20070066521.

- Measured on: T1, S-AC4 (SLCMV AC4) (Sri Lankan cassava mosaic virus)
- T1 chain: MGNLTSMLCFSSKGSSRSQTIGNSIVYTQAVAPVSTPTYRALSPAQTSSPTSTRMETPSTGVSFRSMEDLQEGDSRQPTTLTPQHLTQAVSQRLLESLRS
- Assay info: EMSA
- Condition: tags: GST fusion (pET41a), Ni-NTA purified; label: 5'-32P
Measurement label: binding result

Consider the reported binding result for these binders:
DmiR-165::DmiR-165* DNA duplex (dsDNA) DNA 1: TCGGACCAGGCTTCATCCCCC DNA 2: GGGGGATGAAGCCTGGTCCGA; no binding
ta-siRNA siR255::siR255* duplex (dsRNA) RNA 1: AUGCGAUACAACCUGAAUCUU RNA 2: GAGAUUCAGGUUGCAUCGCGC; binds
UUUGGAUUGAAGGGAGCUCUA (ssRNA) [miR159]; binds
AGGCAGUGUGGUUAGCUGGUUG (ssRNA) [miR34]; binds

Query: What binding result value was documented for this binder, pre-miR159 duplex (dsRNA) RNA 1: UAAAAAAGGAUUUGGUUAUAUGGAUUGCAUAUCUCAGGAGCUUUAACUUGCCCUGUUAAUGCUUUUACUCUUCUUUGGCUUGAAGGGAGCUCUAC RNA 2: GUAGAGCUCCUUAAAGUUCAAACAUGAGUUGAGCAGGGUAAAGAAAAGCUGCUAAGCUAUGGAUCCCAUAAGCCCUAAUCCUUGUAAAG ?
Response: no binding
